Measurement target: T1, human MAdCAM expressed on cells (human, UniProt Q13477 19-382)
T1 construct: whole, on cells; also called MADCAM1
T1 sequence (looked up): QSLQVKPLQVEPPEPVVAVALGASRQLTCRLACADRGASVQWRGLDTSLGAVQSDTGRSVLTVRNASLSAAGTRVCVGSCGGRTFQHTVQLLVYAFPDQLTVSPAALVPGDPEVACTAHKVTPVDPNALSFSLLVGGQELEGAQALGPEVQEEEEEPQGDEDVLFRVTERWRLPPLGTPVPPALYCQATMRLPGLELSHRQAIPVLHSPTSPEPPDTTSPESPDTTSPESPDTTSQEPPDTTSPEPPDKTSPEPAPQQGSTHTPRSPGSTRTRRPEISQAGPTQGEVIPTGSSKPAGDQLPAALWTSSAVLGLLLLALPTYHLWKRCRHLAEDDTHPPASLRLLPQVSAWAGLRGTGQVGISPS
Assay protocol: cell binding
Measurement name: binding result

binder="MAdCAM Antibody Table 1 Clone 44 (scFv) scFv: EVQLVESGGGLVKPGGSLRLSCAASGFTFSSYWMSWVRQAPGKGLEWVSAIGTGGGTYYAAPVKGRFTISRDDSKNTLYLQMNSLKTEDTAVYYCAREWLVPYYGMDVWGQGTTVTVSSGGGGSGGGGSGGGGSGGGGSDIQMTQSPSSLSASVGDRVTITCRASQSISRWLAWYQQKPGKAPKLLIYGASNLQSGVPSRFSGSGSGTDFTLTISSLQPEDFATYYCQQSYSTPWTFGQGTKVEIK" measured_result=binds
binder="MAdCAM Antibody Table 1 Clone 42 (scFv) scFv: QVQLVQSGAEVKKPGSSVKVSCKASGGTLSRYGVSWVRQAPGQGLEWMGGIIPIFGTTNYAQKFQGRVTITADESTSTAYMELSSLRSEDTAVYYCARDRVYYDSSGYPTWYFDLWGRGTLVTVSSGGGGSGGGGSGGGGSGGGGSEIVMTQSPATLSVSPGERATLSCRASQSVSSSYLAWYQQKPGQAPRLLIYGASTRATGIPARFSGSGSGTEFTLTISSLQSEDFAVYYCQQYGSSPITFGQGTKVEIK" measured_result=binds

FYI, the data here is from patent US20210206856A1.
